Each entry below carries its recorded DELFIA signal, 100 nM L1.
target: L1 (DV1-GV4) antigen: soluble heterodimeric γδ TCR in leucine zipper format (TRDV1/TRGV4) (human); assay: DELFIA affinity ranking with 100 nM biotinylated L1
Sequence (main, as listed by the source): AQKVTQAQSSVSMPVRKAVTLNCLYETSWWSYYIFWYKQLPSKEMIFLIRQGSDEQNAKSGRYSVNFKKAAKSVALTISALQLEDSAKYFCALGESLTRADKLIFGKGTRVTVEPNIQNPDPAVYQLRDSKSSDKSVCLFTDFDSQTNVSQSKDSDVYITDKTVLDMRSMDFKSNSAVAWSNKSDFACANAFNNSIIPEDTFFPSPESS
measure: DELFIA signal, 100 nM L1

- 1245_P01_E07 (scFv) (scFv) scFv: QVQLVESGGGLVKPGGSLRLSCAASGFTFSDYYMSWIRQAPGKGLEWVSYISSSGSTIYYADSVKGRFTISRDNAKNSLYLQMNSLRAEDTAVYYCARVDYADAFDIWGQGTLVTVSSGGGGSGGGGSGGGASDIQMTQSPSSLSASVGDRVTIACRAGQSIGTYLNWYQQKPGKAPKLLIYVASSLQSGVPSRFSGSGSGTEFTLTISSLQPEDFATYYCQQSYSTLLTFGRGTKVEIK: 163000
- 1251_P02_C05 (scFv) (scFv) scFv: EVQLLESGGGLVQPGGSLRLSCAASGFTFSSYAMSWVRQAPGKGLEWVSAISGGGGTTYSSDSVKGRFTISRDNSKNTLYLQMNSLRAEDTAVYYCARDSGVAFDIWGQGTLVTVSSGGGGSGGGGSGGGASDIQMTQSPSFLSASVGDRVTITCRASQNIRTWLAWYQQKPGRAPKLLIYDASSLESGVPSRFSGSGSGTDFTLTISSLQPEDFATYYCQQFKRYPPTFGLGTKVEIK: 65300
